Overview of reported RIN = rinsability with water across a group of compounds:
Assay: Rinsability with water
Assay type: physicochemical
Design: key: 0 = poor; + = good; ++ = excellent
Measurement kind: RIN = rinsability with water

- ClCCl [Composition 2, dichloromethane]: 0
- C=C(C)[C@H]1CC=C(C)CC1 [Composition 3, dipentene]: 0
- ClC=C(Cl)Cl [Composition 1, trichloroethylene]: 0

====

Test: Flammability / flashpoint of the compositions
Assay type: physicochemical
Design: key: − = no; +/° C. = yes/flashpoint
Measurement kind: FLA = flammability

- C=C(C)[C@H]1CC=C(C)CC1: +
- ClCCl: −
- ClC=C(Cl)Cl: −
- CO[C@H]1CO[C@H]2[C@@H]1OC[C@H]2OC [Composition 5, dimethyl isosorbide]: +
- CCOC(=O)C(C)O (centres unmarked) [Composition 4, ethyl lactate]: +
